Every entry's value here was drawn from a melting point compilation (Tetko et al.; mined from patent text by program, amines drawn as free bases though some values may be those of a salt).

parameter.measured: melting point

Use these answered entries as a reference point.
CCOC(=O)C(=CN(C)C)C(=O)c1cc(F)c(N2CCC(NC(C)=O)C2)nc1Nc1ccc(F)cc1F (stereo not given)	184 to 186 °C
CCCCCCCCCCCCCCCCSCC(CNS(=O)(=O)CCCI)n1nnnc1C (stereo not given)	63.5 to 65.5 °C
O=C(O)c1ccc(-c2ccc(F)cc2)cc1	138 to 141 °C
C[C@H](CO)Nc1nc(SCc2cccc(C(F)(F)F)c2F)nc2[nH]c(=O)cnc12	217 to 219 °C

Now look at this entry.
The reported melting point of the compound O=C1c2ccccc2C(=O)N1OCc1nc(=O)c(O)c[nH]1 was 174 to 175 °C
